Target: IKKε (Homo sapiens)
Construct: His-tag; made in house; host or cells: Sf9 insect cells
Sequence (Q14164 1-716): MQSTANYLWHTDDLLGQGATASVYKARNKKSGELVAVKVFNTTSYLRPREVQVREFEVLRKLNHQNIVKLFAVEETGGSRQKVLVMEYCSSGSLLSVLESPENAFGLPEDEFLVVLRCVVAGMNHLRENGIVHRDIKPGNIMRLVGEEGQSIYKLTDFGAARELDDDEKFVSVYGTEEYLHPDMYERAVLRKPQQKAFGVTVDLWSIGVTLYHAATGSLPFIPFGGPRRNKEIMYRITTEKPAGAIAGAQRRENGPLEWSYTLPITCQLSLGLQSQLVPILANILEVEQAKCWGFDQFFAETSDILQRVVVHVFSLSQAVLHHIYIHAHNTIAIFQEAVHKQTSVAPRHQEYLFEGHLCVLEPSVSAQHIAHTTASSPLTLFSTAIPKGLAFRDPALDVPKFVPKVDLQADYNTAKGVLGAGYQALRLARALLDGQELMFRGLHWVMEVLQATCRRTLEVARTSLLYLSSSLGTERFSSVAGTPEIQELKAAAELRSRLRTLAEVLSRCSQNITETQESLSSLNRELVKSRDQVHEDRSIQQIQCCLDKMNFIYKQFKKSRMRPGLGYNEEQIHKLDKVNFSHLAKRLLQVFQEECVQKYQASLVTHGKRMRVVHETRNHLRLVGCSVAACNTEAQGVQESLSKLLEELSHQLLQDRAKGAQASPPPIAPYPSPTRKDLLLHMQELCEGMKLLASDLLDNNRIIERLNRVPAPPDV
Assay: In-vitro IKKε kinase assay ([γ33]ATP filter-plate)
Format: biochemical
Conditions: text bins; read-out: IC50 for inhibition of the kinase activity of IKKε
# reported IC50; entries follow

Here are 3 compounds together with their reported answers.
Compound | Endpoint Result
COc1cc(Nc2nccc(-c3ccc(OCCO)c(C#N)c3)n2)ccc1N1CCNC(=O)C1 [compound 296] | 5 to 50 nM
CNS(=O)(=O)Cc1ccc(Nc2nccc(-c3ccc(NC(=O)C(C)C)c(C#N)c3)n2)cc1 [compound 414] | 5 to 50 nM
N#Cc1cc(-c2ccnc(Nc3ccc(F)c(OC4CCNC4)c3)n2)ccc1OCC1CC1 (stereo not shown) [compound 670] | < 5 nM

Would you kindly look at the next entry?
Which IC50 is listed for CC(C)N1CCC(Oc2ccc(-c3ccnc(Nc4ccc(N5CCOCC5)cc4)n3)cc2C#N)CC1 [Example 227] ?
50 to 500 nM

----------
This listing pairs compounds with measured IC50.
Target: TBK1 (Homo sapiens, UniProt Q9UHD2)
Construct: His-tag; made in house; host or cells: Sf9 insect cells
Sequence (Q9UHD2 1-729): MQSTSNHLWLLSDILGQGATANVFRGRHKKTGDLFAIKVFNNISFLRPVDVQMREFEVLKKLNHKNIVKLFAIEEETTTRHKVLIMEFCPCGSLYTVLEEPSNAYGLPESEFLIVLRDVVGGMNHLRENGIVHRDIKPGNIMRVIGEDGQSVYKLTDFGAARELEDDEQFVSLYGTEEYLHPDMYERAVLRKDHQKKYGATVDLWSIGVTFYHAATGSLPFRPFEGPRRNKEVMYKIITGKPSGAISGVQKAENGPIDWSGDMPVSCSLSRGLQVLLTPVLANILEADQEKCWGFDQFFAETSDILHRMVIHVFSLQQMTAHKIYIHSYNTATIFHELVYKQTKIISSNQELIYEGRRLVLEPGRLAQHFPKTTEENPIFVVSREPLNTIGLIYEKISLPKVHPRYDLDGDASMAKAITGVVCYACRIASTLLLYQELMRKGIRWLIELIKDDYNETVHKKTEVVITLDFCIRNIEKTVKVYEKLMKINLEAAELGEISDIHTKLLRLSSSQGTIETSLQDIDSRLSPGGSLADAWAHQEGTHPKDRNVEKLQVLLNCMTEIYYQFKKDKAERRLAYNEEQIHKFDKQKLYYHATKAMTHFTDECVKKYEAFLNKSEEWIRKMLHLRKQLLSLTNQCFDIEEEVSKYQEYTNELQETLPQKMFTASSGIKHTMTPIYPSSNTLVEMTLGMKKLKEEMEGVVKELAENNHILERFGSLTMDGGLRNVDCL
Test: In-vitro TBK1 kinase assay ([γ33]ATP filter-plate)
Format: biochemical
Conditions: text bins; read-out: IC50 for inhibition of the kinase activity of TBK1
Protocol: IKKε enzyme was produced as a His-tag fusion in Sf9 cells and used at a final concentration of […]. TBK1 enzyme was produced as a His-tag fusion in Sf9 cells and used at a final concentration of 0.1 μg/ml. […] After air drying, scintillant (PerkinElmer, Waltham, Mass.) was added and the plates were read on a PerkinElmer TopCount NXT instrument. […]

Chem Smiles | Target Or Test System | IC50
COc1ccc(-c2ccnc(Nc3cccc(Cl)c3)n2)cc1C#N | TBK1 (Homo sapiens, UniProt Q9UHD2) | 10 to 100 nM

Form field - read-out: IC50; system: TBK1 (Homo sapiens, UniProt Q9UHD2); submitted item: "C[C@H](O)C(=O)N1CCC(Oc2ccc(-c3ccnc(Nc4ccc(N5CCOCC5)cc4)n3)cc2C#N)CC1"
< 10 nM

Another compound to check: "COc1ccc(-c2ccnc(Nc3ccc(N4CCN(C(C)C)C(=O)C4)c(OC)c3)n2)cc1C#N"
< 10 nM

# credit: patent US20150352108A1
